Biological target: hα2B receptor (Homo sapiens)
Construct: expressed in transfected cells
Sequence (P18089 1-450): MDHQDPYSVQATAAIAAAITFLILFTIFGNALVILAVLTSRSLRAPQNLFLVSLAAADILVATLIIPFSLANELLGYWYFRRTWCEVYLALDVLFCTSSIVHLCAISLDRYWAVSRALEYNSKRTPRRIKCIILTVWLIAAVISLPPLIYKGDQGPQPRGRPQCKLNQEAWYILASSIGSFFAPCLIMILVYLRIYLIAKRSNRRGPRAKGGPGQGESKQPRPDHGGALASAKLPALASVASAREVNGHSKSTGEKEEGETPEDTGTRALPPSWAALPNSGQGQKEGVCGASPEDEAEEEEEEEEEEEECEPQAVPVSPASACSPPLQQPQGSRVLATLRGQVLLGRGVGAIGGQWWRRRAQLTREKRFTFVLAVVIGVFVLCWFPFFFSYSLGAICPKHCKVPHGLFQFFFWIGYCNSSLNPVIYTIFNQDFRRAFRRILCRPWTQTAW
Test: Radioligand binding experiment for hα2B receptor ([3H]-raulwolscine)
Details: membranes of CHO cells expressing human α2B receptor; [3H]raulwolscine 1 nM; read-out: hα2B pIC50 (converted)
Checkbox rule: IC50 lower than 10 nM = YES; IC50 not lower than 10 nM = NO.

molecule: COc1cc2c(cc1OC)C1=NOC(CN3CCN(CC(C)=Cc4cccc(F)c4)CC3)C1CO2 (centres unmarked) [Compound 195]
class.label: YES
--
molecule: COc1cc2c(cc1F)C1=NOC(CN3CCN(CC(C)=Cc4ccccc4)CC3)C1CO2 (centres unmarked) [Compound 241]
class.label: YES
--
molecule: COc1cc2c(cc1OC)C1=NOC(CN3CCN(Cc4ccsc4)CC3)C1CO2 (centres unmarked) [Compound 300]
class.label: NO
--
molecule: COc1cc2c(cc1O)OCC1C2=NOC1CN1CCN(C/C(C)=C/c2ccccc2)CC1 (centres unmarked) [Compound 3]
class.label: YES
--
molecule: COc1cc2c(cc1OC)C1=NOC(CN3CCN(CC=C(C)c4ccccc4)CC3)C1CN2 (centres unmarked) [Compound 379]
class.label: NO
--
molecule: COc1cc2c(cc1OC)C1=NOC(CN3CCN(C/C=C/c4ccc(F)cc4F)CC3)C1CO2 (single isomer, unassigned) [Compound 185]
class.label: NO
--
molecule: C(=Cc1ccccc1)CN1CCN(CC2ON=C3c4cc5c(cc4OCC32)OCO5)CC1 (centres unmarked) [Compound 278]
class.label: YES
--
molecule: COc1cc2c(cc1OC)C1=NOC(CN3CCN(CC4=Cc5ccccc5OC4)CC3)C1CO2 (centres unmarked) [Compound 65]
class.label: NO
--
molecule: c1ccc2cc(CN3CCN(CC4ON=C5c6cc7c(cc6OCC54)OCO7)CC3)ccc2c1 (centres unmarked) [Compound 277]
class.label: YES
--
molecule: COc1cc2c(cc1OC)C1=NOC(CN3CCN(CC=Cc4cccc(C)c4)CC3)C1CO2 (centres unmarked) [Compound 110]
class.label: NO
--
molecule: CC(=Cc1ccccc1)CN1CCN(CC2ON=C3c4ccc(OC(=O)C(C)(C)C)cc4OCC32)CC1 (centres unmarked) [Compound 329]
class.label: NO
--
molecule: COc1cc2c(cc1OC)C1=NOC(CN3CCN(Cc4ccc5ccccc5c4)CC3)C1CN2 (centres unmarked) [Compound 15]
class.label: NO
--
molecule: COc1cc2c(cc1OC)C1=NOC(CN3CCN(CCc4ccc5c(c4)OCO5)CC3)C1CO2 (centres unmarked) [Compound 47]
class.label: NO
--
molecule: COc1cc2c(cc1OC)C1=NOC(CN3CCN(CC(C)=Cc4cccc5ccccc45)CC3)C1CO2 (centres unmarked) [Compound 157]
class.label: NO
--
molecule: COc1cc2c(cc1OC)C1=NOC(CN3CCN(Cc4cc5ccccc5o4)CC3)C1CO2 (centres unmarked) [Compound 54]
class.label: NO
--
molecule: CC(=Cc1ccccc1)CN1CCN(CC2ON=C3c4ccc(O)cc4OCC32)CC1 (centres unmarked) [Compound 237]
class.label: YES
--
molecule: COc1cc2c(cc1OC)C1=NOC(CN3CCN(CC=Cc4ccc(F)cc4)CC3)C1CO2 (centres unmarked) [Compound 43]
class.label: NO
--
molecule: COc1cc2c(cc1OC)C1=NOC(CN3CCN(Cc4ccc5cc(F)ccc5c4)CC3)C1CO2 (centres unmarked) [Compound 76]
class.label: NO
--
molecule: COc1cc2c(cc1OC)C1=NOC(CN3CCN(CC(Br)=Cc4ccccc4)CC3)C1CO2 (centres unmarked) [Compound 143]
class.label: NO
--
molecule: COc1cc2c(cc1OC)C1=NOC(CN3CCN(C/C=C/c4ccsc4)CC3)C1CO2 (single isomer, unassigned) [Compound 314]
class.label: YES
--
molecule: COc1cc2c(cc1OC)C1=NOC(CN3CCN(CCCc4ccccc4)CC3)C1CO2 (centres unmarked) [Compound 32]
class.label: NO
--
molecule: COc1cc2c(cc1OC)C1=NOC(CN3CCN(Cc4ccc5ccccc5c4)CC3)C1CN2 (centres unmarked) [Compound 272]
class.label: NO
--
molecule: CSc1cc2c(cc1F)C1=NOC(CN3CCN(CC(C)=Cc4ccccc4)CC3)C1CO2 (centres unmarked) [Compound 244]
class.label: YES
--
molecule: COc1cc2c(cc1OC)C1=NOC(CN3CCN(CC(C)Nc4ccccc4)CC3)C1CO2 (centres unmarked) [Compound 26]
class.label: NO
--
molecule: COc1cc2c(cc1OC)C1=NOC(CN3CCN(CC(C)=Cc4ccc(F)cc4)CC3)C1CO2 (centres unmarked) [Compound 196]
class.label: YES
--
molecule: C(=Cc1ccccc1)CN1CCN(CC2ON=C3c4ccccc4CCC32)CC1 (centres unmarked) [Comp 218]
class.label: NO
--
molecule: c1ccc2cc(CN3CCN(CC4ON=C5c6ccc(OC7CCOC7)cc6OCC54)CC3)ccc2c1 (centres unmarked) [Compound 271]
class.label: NO
--
molecule: COc1cc2c(cc1OC)C1=NOC(CN3CCN(C(C)/C=C/c4ccccc4)CC3)C1CO2 (single isomer, unassigned) [Compound 316]
class.label: NO
--
molecule: CC(=O)Oc1ccc2c(c1)OCC1C2=NOC1CN1CCN(Cc2ccc3ccccc3c2)CC1 (centres unmarked) [Compound 273]
class.label: NO
--
molecule: COc1cc2c(cc1OC)C1=NOC(CN3CCN(Cc4ccc5ccccc5n4)CC3)C1CO2 (centres unmarked) [Compound 45]
class.label: NO
--
molecule: CCC(=Cc1ccccc1)CN1CCN(CC2ON=C3c4cc(OC)c(OC)cc4OCC32)CC1 (centres unmarked) [Compound 154]
class.label: NO
--
molecule: COCCOc1ccc2c(c1)OCC1C2=NOC1CN1CCN(CC(C)=Cc2ccccc2)CC1 (centres unmarked) [Compound 239]
class.label: YES

---

target: hα2B receptor (Homo sapiens, UniProt P18089); construct: expressed in transfected cells; assay: Radioligand binding experiment for hα2B receptor ([3H]-raulwolscine); settings: membranes of CHO cells expressing human α2B receptor; [3H]raulwolscine 1 nM; read-out: hα2B pIC50 (converted)
measured.property: IC50 (nM)

compound: COc1cc2c(cc1OC(C)=O)C1=NOC(CN3CCN(C/C(C)=C/c4ccccc4)CC3)C1CO2 (single isomer, unassigned)
reported.value: 3.8

compound: COc1cc2c(cc1OC)C1=NOC(CN3CCN(Cc4ccoc4)CC3)C1CO2 (stereo not drawn)
reported.value: 407

compound: COc1cc2c(cc1OC)C1=NOC(CN3CCN(CC(C)=Cc4cc(F)ccc4F)CC3)C1CO2 (stereo not drawn)
reported.value: 1

compound: COCCOCOc1ccc2c(c1)OCC1C2=NOC1CN1CCN(Cc2ccc3ccccc3c2)CC1 (stereo not drawn)
reported.value: 12.6

compound: COc1cc2c(cc1OC)C1=NOC(CN3CCN(CC=Cc4ccc5ccccc5c4)CC3)C1CO2 (stereo not drawn)
reported.value: 776

compound: COc1ccc2c(c1)OCC1C2=NOC1CN1CCN(Cc2ccc3ccccc3c2)CC1 (stereo not drawn)
reported.value: 20.9

---

molecular target: h5-HT transporter (Homo sapiens, UniProt P31645); construct: Human platelet membranes (Oceanix Biosciences Corporation, Hanover, Md., USA) were thawed; tissue Oceanix Biosciences Corporation, Hanover, Md., USA; host or cells: human platelet membranes; assay: Radioligand binding experiment for 5-HT transporter ([3H]paroxetine, human platelet membranes); settings: read-out: 5HTT pIC50 (converted)
Sequence (P31645 whole entry): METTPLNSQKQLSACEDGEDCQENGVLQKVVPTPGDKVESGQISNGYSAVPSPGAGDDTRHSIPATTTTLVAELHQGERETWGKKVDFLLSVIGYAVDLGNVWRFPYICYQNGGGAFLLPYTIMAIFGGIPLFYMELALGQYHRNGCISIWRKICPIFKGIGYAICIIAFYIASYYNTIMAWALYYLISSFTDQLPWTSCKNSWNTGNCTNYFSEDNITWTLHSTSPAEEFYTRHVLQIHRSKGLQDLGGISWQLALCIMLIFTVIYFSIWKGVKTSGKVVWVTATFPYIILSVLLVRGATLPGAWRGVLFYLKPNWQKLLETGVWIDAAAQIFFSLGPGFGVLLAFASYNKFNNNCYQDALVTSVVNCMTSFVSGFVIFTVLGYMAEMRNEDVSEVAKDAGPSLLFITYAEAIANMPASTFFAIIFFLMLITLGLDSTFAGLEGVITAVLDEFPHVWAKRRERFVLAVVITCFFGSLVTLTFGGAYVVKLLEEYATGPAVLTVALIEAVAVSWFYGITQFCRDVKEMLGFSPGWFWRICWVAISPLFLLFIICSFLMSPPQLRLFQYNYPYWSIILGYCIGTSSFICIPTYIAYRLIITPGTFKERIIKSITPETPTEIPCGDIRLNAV
# reported IC50; entries follow

compound: COc1cc2c(cc1OC)C1=NOC(CN3CCN(C/C=C(\C)c4ccccc4)CC3)C1CO2 (single isomer, unassigned)
IC50 [nM]: 32.4
//
compound: CC(=Cc1ccccc1)CN1CCN(CC2ON=C3c4ccc(OC(=O)C(C)(C)C)cc4OCC32)CC1 (stereo not shown)
IC50 [nM]: 33.1
//
compound: COc1cc2c(cc1OC)C1=NOC(CN3CCN(C/C=C/c4ccccc4)CC3)C1CO2 (single isomer, unassigned) [Compound 8]
IC50 [nM]: 17.8
//
compound: COc1cc2c(cc1OC)C1=NOC(CN3CCN(Cc4ccc5ccccc5c4)CC3)C1CN2 (stereo not shown) [Compound 272]
IC50 [nM]: 4.79
//
compound: COc1cc2c(cc1OC)C1=NOC(CN3CCN(C/C=C/c4ccccc4)CC3)C1CO2 (single isomer, unassigned) [Compound 1]
IC50 [nM]: 5.13
//
compound: COc1cc2c(cc1OC)C1=NOC(CN3CCN(Cc4ccc5ccccc5c4)CC3)C1CN2 (stereo not shown) [Compound 15]
IC50 [nM]: 17
//
compound: COc1cc2c(cc1OC)C1=NOC(CN3CCN(Cc4ccc5ccccc5c4)CC3)C1CO2 (single isomer, unassigned)
IC50 [nM]: 3.72
